TARGET_UNDER_TEST: T1, human CD47 (human, UniProt Q08722 19-292)
T1 construct: also called hCD47; CD47 on OV10 hCD47 cells, human RBCs, Jurkat cells and normal human cells
ASSAY_NAME: cell ELISA, OV10 hCD47 cells
Hi there, I'd appreciate the recorded pKd for every entry that follows.
One number for each entry, as −log10 of the molar value.

VLX8hum_07 IgG2 (antibody, V domains shown) VH: QVQLVQSGAEVKKPGSSVKVSCKASGYSFTNYYIHWVRQAPGQGLEWMGYIDPLNGDTTYNQKFKGRVTITADESTSTAYMELSSLRSEDTAVYYCARGGKRAMDYWGQGTLVTVSS VL: DIQMTQSPSSLSASVGDRVTITCRASQSISNYLNWYQQKPGKAPKLLIYYTSRLYSGVPSRFSGSGSGTDFTLTISSLQPEDFATYYCQQGNTLPWTFGQGTKVEIKR ... 9.34
VLX8hum_09 IgG2 (antibody, V domains shown) VH: QVQLVQSGAEVKKPGSSVKVSCKASGYSFTNYYIHWVRQAPGQGLEWMGYIDPLNGDTTYAQKFQGRVTITADESTSTAYMELSSLRSEDTAVYYCARGGKRAMDYWGQGTLVTVSS VL: DIQMTQSPSSLSASVGDRVTITCRASQSISNYLNWYQQKPGKAPKLLIYYTSRLYSGVPSRFSGSGSGTDFTLTISSLQPEDFATYYCQQGNTLPWTFGQGTKVEIKR ... 9.17

Quick one: give me pKd for each item below, same order please.
1. VLX8hum_06 IgG2 (antibody, V domains shown) VH: QVQLVQSGAEVKKPGASVKVSCKASGYSFTNYYIHWVRQAPGQGLEWMGYIDPLNGDTTYNQKFKGRVTMTRDTSTSTVYMELSSLRSEDTAVYYCARGGKRAMDYWGQGTLVTVSS VL: DIQMTQSPSSLSASVGDRVTITCRASQSISNYLNWYQQKPGKAPKLLIYYTSRLYSGVPSRFSGSGSGTDFTLTISSLQPEDFATYYCQQGNTLPWTFGQGTKVEIKR
2. VLX8hum_08 IgG2 (antibody, V domains shown) VH: EVQLVQSGAEVKKPGESLKISCKGSGYSFTNYYIHWVRQMPGKGLEWMGYIDPLNGDTTYNQKFKGQVTISADKSISTAYLQWSSLKASDTAMYYCARGGKRAMDYWGQGTLVTVSS VL: DIQMTQSPSSLSASVGDRVTITCRASQSISNYLNWYQQKPGKAPKLLIYYTSRLYSGVPSRFSGSGSGTDFTLTISSLQPEDFATYYCQQGNTLPWTFGQGTKVEIKR

Reply:
[9.39, 9.33]
